# IC50 against RORc (Homo sapiens, UniProt P51449), merged from multiple literature sources
Write the number in nM without appending the unit.

1. CC1(C)[C@H]2CC[C@]1([C@H]1CCCN(c3ccccn3)C1)c1nnc(-c3c(F)cccc3F)cc12 ... 27
2. C[C@H]1CC[C@H](c2ccccc2)S(=O)(=O)N1Cc1ccc(C2(C(=O)NC3CC(O)C3)CCOCC2)cc1F (stereo partly shown) ... 13.6
3. CC1(C)[C@H]2CC[C@]1(NC(=O)CO)c1nnc(-c3ccccc3F)cc12 ... 1440
4. Cc1cc([C@@]23CC[C@@H](c4cc(-c5c(F)cccc5F)nnc42)C3(C)C)[nH]n1 ... 123

# context switch: different compound, same IC50
Consider "C[C@H]1CC[C@H](c2ccccc2)S(=O)(=O)N1Cc1ccc(C2([C@@H](O)CCO)CCOCC2)cc1F" . Its measured IC50 is 35.2

* * *

# pIC50 against RORc (Homo sapiens, UniProt P51449), merged from multiple literature sources
pIC50 here is simply -log10 of the concentration when that concentration is written in mol/L.

Known pIC50 results, listed for orientation:
1) CC1(C)[C@H]2CC[C@]1([C@@H]1CN(C(N)=O)CCN1)c1nnc(-c3c(F)cccc3F)cc12 ... 7.54
2) CNC(=O)[C@]1(c2ccc(CN3[C@@H](C)CC[C@H](c4ccccc4)S3(=O)=O)c(F)c2)CC[C@H](n2cnnc2)CC1 ... 7.02
3) CC(C)CN([C@H](C)c1ccc(-c2ccc(S(C)(=O)=O)cc2)cc1)S(=O)(=O)Cc1ccccc1 ... 5.54

# context switch: different compound, same pIC50
Consider "CC1(C)[C@H]2CC[C@]1(Oc1ccccn1)c1nnc(-c3c(F)cccc3F)cc12" . Its measured pIC50 is 7.37

* * *

# pIC50 against RORc (Homo sapiens, UniProt P51449), merged from multiple literature sources
pIC50 here is simply -log10 of the concentration when that concentration is written in mol/L.

Known pIC50 results, listed for orientation:
1) CC1(C)[C@H]2CC[C@]1(c1cncc(C(=O)NCC#N)n1)c1nnc(-c3c(F)cccc3F)cc12 ... 7.69
2) CC1(C)[C@H]2CC[C@]1(c1ccnc(N)n1)c1nnc(-c3c(F)cccc3F)cc12 ... 7.66

Consider "CC1(C)[C@H]2CC[C@]1(c1cc(=O)[nH]cn1)c1nnc(-c3c(F)cccc3F)cc12" . Its measured pIC50 is 6.44

Consider "CC[C@@H](O[C@@]12CC[C@@H](c3cc(-c4c(F)cccc4F)nnc31)C2(C)C)c1n[nH]c(CO)n1" . Its measured pIC50 is 6.08

Consider "CC(C)CN(Cc1ccc(OC(F)(F)F)cc1)S(=O)(=O)c1ccc(N2CCN(S(C)(=O)=O)CC2)cc1" . Its measured pIC50 is 6.99

Consider "C[C@H]1CCCN1C(=O)[C@]12CC[C@H](c3cc(-c4c(F)cccc4F)nnc31)C2(C)C" . Its measured pIC50 is 6.62

Consider "CC1(C)[C@H]2CC[C@]1(c1ccnc(N3CCO[C@@H](CO)C3)n1)c1nnc(-c3c(F)cccc3F)cc12" . Its measured pIC50 is 8.30

* * *

# pIC50 against RORc (Homo sapiens), merged from multiple literature sources
pIC50 here is simply -log10 of the concentration when that concentration is written in mol/L.

Known pIC50 results, listed for orientation:
1) Cc1ccn(-c2nccc([C@@]34CC[C@@H](c5cc(-c6c(F)cccc6F)nnc53)C4(C)C)n2)n1 ... 8.51
2) CC1(C)[C@H]2CC[C@]1(c1ccnc(C#N)c1C#N)c1nnc(-c3c(F)cccc3F)cc12 ... 6.91
3) C[C@H]1CC[C@H](c2ccccc2)S(=O)(=O)N1Cc1cc(F)c(C2(C#N)CCOCC2)cc1F ... 7.57

Lab entry: RORc (Homo sapiens) assay, compound "C[C@H]1CC[C@H](c2ccccc2)S(=O)(=O)N1Cc1cc(F)c(C2(CCC(=O)N(C)C)CC2)cc1F" , pIC50 = 7.49

Lab entry: RORc (Homo sapiens) assay, compound CC1(C)[C@@H]2CC[C@@]1(C(=O)N1CCCC1C(F)(F)F)c1nnc(-c3c(F)cccc3F)cc12 (stereo partly drawn) , pIC50 = 6.49

Lab entry: RORc (Homo sapiens) assay, compound "CC1(C)[C@H]2CC[C@]1(c1ncccn1)c1nnc(-c3c(F)cccc3F)cc12" , pIC50 = 7.82
